Tested on: N. gonorrhoeae ATCC 49226
ASSAY_METHOD_TEXT: Liquid broth MIC in Fastidious broth
COND: Neisseria gonorrhoeae, ATCC49226, read-out: Minimum Inhibitory Concentration (MIC), N. gonorrhoeae ATCC 49226

COMPOUND | TARGET_SYSTEM | MIC
O=C1CC[C@H](C(=O)NC(C(=O)N[C@H]2Cc3cccc(C(=O)O)c3OB2O)c2ccc(P(=O)(O)O)cc2)N1 (stereo partly drawn) | N. gonorrhoeae ATCC 49226 | 1 to 2 µg/mL
O=C(O)c1cccc2c1OB(O)[C@@H](NC(=O)C(NC(=O)c1ccc[nH]c1=O)c1ccc(P(=O)(O)O)cc1)C2 (stereo partly drawn) | N. gonorrhoeae ATCC 49226 | 4 to 8 µg/mL
O=C(O)c1cccc2c1OB(O)[C@@H](NC(=O)[C@H](NC(=O)N1CCNC1=O)c1ccc(P(=O)(O)O)cc1)C2 | N. gonorrhoeae ATCC 49226 | < 1 µg/mL
O=C(O)c1c(F)ccc2c1OB(O)[C@@H](NC(=O)C(NC(=O)N1CCN(Cc3ccc(O)c(O)c3Cl)C(=O)C1=O)c1ccc(P(=O)(O)O)c(F)c1)C2 (stereo partly drawn) | N. gonorrhoeae ATCC 49226 | < 1 µg/mL
O=C(O)c1cccc2c1OB(O)[C@@H](NC(=O)C(NC(=O)N1CCCNC1=O)c1ccc(P(=O)(O)O)cc1)C2 (stereo partly drawn) | N. gonorrhoeae ATCC 49226 | 1 to 2 µg/mL
CCN1CCN(C(=O)NC(C(=O)N[C@H]2Cc3cccc(C(=O)O)c3OB2O)c2ccc(CP(=O)(O)O)cc2)C(=O)C1=O (stereo partly drawn) | N. gonorrhoeae ATCC 49226 | < 1 µg/mL
CCN1CCN(C(=O)N[C@@H](C(=O)N[C@H]2Cc3ccc(F)c(C(=O)O)c3OB2O)c2ccc(P(=O)(O)O)cc2)C(=O)C1=O (single isomer, unassigned) | N. gonorrhoeae ATCC 49226 | < 1 µg/mL
O=C(NCCN1CCN(C(=O)N[C@@H](C(=O)N[C@H]2Cc3ccc(F)c(C(=O)O)c3OB2O)c2cc(F)c(O)c(O)c2Cl)C(=O)C1=O)Nc1ccncc1 | N. gonorrhoeae ATCC 49226 | 16 to 32 µg/mL
O=C(NCCN1CCN(C(=O)NC(C(=O)N[C@H]2Cc3ccc(F)c(C(=O)O)c3OB2O)c2cc(F)c(O)c(O)c2Cl)C1=O)c1cccc(O)c1 (stereo partly drawn) | N. gonorrhoeae ATCC 49226 | > 64 µg/mL
CS(=O)(=O)N1CCC[C@H]1C(=O)N[C@@H](C(=O)N[C@H]1Cc2cccc(C(=O)O)c2OB1O)c1ccc(P(=O)(O)O)cc1 | N. gonorrhoeae ATCC 49226 | 1 to 2 µg/mL
CCN1CCN(C(=O)N[C@@H](C(=O)N[C@H]2Cc3cccc(C(=O)O)c3OB2O)c2ccc(P(=O)(O)O)c(F)c2)C(=O)C1=O (single isomer, unassigned) | N. gonorrhoeae ATCC 49226 | < 1 µg/mL
CN1CCC[C@H]1C(=O)NC(C(=O)N[C@H]1Cc2cccc(C(=O)O)c2OB1O)c1ccc(P(=O)(O)O)cc1 (stereo partly drawn) | N. gonorrhoeae ATCC 49226 | 16 to 32 µg/mL

----------
Listed next: entries and their corresponding MIC.
Tested on: E. coli ATCC 25922
ASSAY_METHOD_TEXT: microbe, parasite or virus in culture
Format: cell-based
COND: Escherichia coli, ATCC25922, read-out: MIC E. coli 25922

MOLECULE | MIC
NC(=O)c1ccc(C(=O)NC(C(=O)N[C@H]2Cc3cccc(C(=O)O)c3OB2O)c2ccc(P(=O)(O)O)cc2)nc1 (some centres unmarked) [Example 188] | > 128 µg/mL
O=C(O)c1cccc2c1OB(O)[C@@H](NC(=O)[C@H](NC(=O)N1CCNC1=O)c1ccc(P(=O)(O)O)cc1)C2 [Example 40] | 32 to 64 µg/mL
O=C(O)c1cccc2c1OB(O)[C@@H](NC(=O)[C@H](NC(=O)N1CCN(S(=O)(=O)c3ccc(O)c(O)c3Cl)C1=O)c1ccc(P(=O)(O)O)cc1)C2 [Example 509] | < 1 µg/mL
O=C(O)c1cccc2c1OB(O)[C@@H](NC(=O)C(NC(=O)C1CCCCC1)c1ccc(P(=O)(O)O)cc1)C2 (some centres unmarked) [Example 31] | > 128 µg/mL
N#Cc1ccnc(C(=O)NC(C(=O)N[C@H]2Cc3cccc(C(=O)O)c3OB2O)c2ccc(P(=O)(O)O)cc2)c1 (some centres unmarked) [Example 179] | > 128 µg/mL
